System: SK-MEL-28
EXPERIMENT NOTES: Cytotoxicity against human SK-MEL-28 cells assessed as growth inhibition at 10 uM after 24 hrs by SRB assay
Assay type: functional
The source made the active and inactive calls. The rule behind the calls is not given here.

COMPOUND STRUCTURE: COc1ccc(C(=O)c2cc(-c3nc(OC)nc(OC)n3)c3cc(C#N)ccn23)cc1
growth inhibition (GI): inactive
--
COMPOUND STRUCTURE: COc1nc(OC)nc(-c2cc(C(=O)c3ccc(C)cc3)n3ccccc23)n1
growth inhibition (GI): inactive
--
COMPOUND STRUCTURE: COc1ccc(C(=O)c2cc(-c3nc(OC)nc(OC)n3)c3ccccn23)cc1
growth inhibition (GI): inactive
--
COMPOUND STRUCTURE: COc1nc(OC)nc(-c2cc(C(=O)c3ccc(C)cc3)n3ccc(C#N)cc23)n1
growth inhibition (GI): inactive
--
COMPOUND STRUCTURE: COc1nc(OC)nc(-c2cc(C(=O)c3ccc(Br)cc3)n3ccc(C#N)cc23)n1
growth inhibition (GI): inactive
--
COMPOUND STRUCTURE: COc1nc(OC)nc(-c2cc(C(=O)c3cc(OC)c(OC)c(OC)c3)n3c(-c4ccccc4)cccc23)n1
growth inhibition (GI): inactive
--
COMPOUND STRUCTURE: COc1nc(OC)nc(-c2cc(C(=O)c3cc(OC)c(OC)c(OC)c3)n3ccccc23)n1
growth inhibition (GI): inactive

----------
Tested on: SK-MEL-5
EXPERIMENT NOTES: Cytotoxicity against human SK-MEL-5 cells assessed as growth inhibition at 10 uM after 24 hrs by SRB assay
Format: functional
TEST CONDITIONS: SK-MEL-5, 24 h, read-out: GI

COMPOUND STRUCTURE: COc1nc(OC)nc(-c2cc(C(=O)c3ccc(Br)cc3)n3ccccc23)n1
inhibition of growth at 10 µM: 27%
--
COMPOUND STRUCTURE: COc1nc(OC)nc(-c2cc(C(=O)c3cc(OC)c(OC)c(OC)c3)n3ccc(C)cc23)n1
inhibition of growth at 10 µM: 63%
--
COMPOUND STRUCTURE: COc1nc(OC)nc(-c2cc(C(=O)c3ccc(C)cc3)n3ccccc23)n1
inhibition of growth at 10 µM: 19%
--
COMPOUND STRUCTURE: COc1nc(OC)nc(-c2cc(C(=O)c3cc(OC)c(OC)c(OC)c3)n3c(C)cccc23)n1
inhibition of growth at 10 µM: 41%
--
COMPOUND STRUCTURE: COc1nc(OC)nc(-c2cc(C(=O)c3cc(OC)c(OC)c(OC)c3)n3c(-c4ccccc4)cccc23)n1
inhibition of growth at 10 µM: 67%

----------
Tested on: PC-3
EXPERIMENT NOTES: Cytotoxicity against human PC3 cells assessed as growth inhibition at 10 uM after 24 hrs by SRB assay
Type: functional
TEST CONDITIONS: PC-3, 24 h, read-out: GI
# cutoff 40% applies to inhibition of growth at 10 µM; >= gives Yes, < gives No

COMPOUND STRUCTURE: COc1nc(OC)nc(-c2cc(C(=O)c3ccc(C)cc3)n3ccccc23)n1
GROUP LABEL: No

COMPOUND STRUCTURE: COc1nc(OC)nc(-c2cc(C(=O)c3cc(OC)c(OC)c(OC)c3)n3ccc(C)cc23)n1
GROUP LABEL: No

COMPOUND STRUCTURE: COc1nc(OC)nc(-c2cc(C(=O)c3ccc(Br)cc3)n3ccc4ccccc4c23)n1
GROUP LABEL: Yes

COMPOUND STRUCTURE: COc1nc(OC)nc(-c2cc(C(=O)c3ccc(Br)cc3)n3c2ccc2ccccc23)n1
GROUP LABEL: No

COMPOUND STRUCTURE: COc1nc(OC)nc(-c2cc(C(=O)c3cc(OC)c(OC)c(OC)c3)n3c(C)cccc23)n1
GROUP LABEL: No

COMPOUND STRUCTURE: COc1ccc(C(=O)c2cc(-c3nc(OC)nc(OC)n3)c3ccccn23)cc1
GROUP LABEL: No

COMPOUND STRUCTURE: COc1nc(OC)nc(-c2cc(C(=O)c3ccc(Br)cc3)n3ccccc23)n1
GROUP LABEL: Yes

COMPOUND STRUCTURE: COc1nc(OC)nc(-c2cc(C(=O)c3cc(OC)c(OC)c(OC)c3)n3c(-c4ccccc4)cccc23)n1
GROUP LABEL: No

COMPOUND STRUCTURE: COc1nc(OC)nc(-c2cc(C(=O)c3ccc(Cl)cc3)n3ccccc23)n1
GROUP LABEL: No

----------
inhibition of growth at 10 µM for assorted molecules
Tested on: SNB-75
EXPERIMENT NOTES: Cytotoxicity against human SNB75 cells assessed as growth inhibition at 10 uM after 24 hrs by SRB assay
Assay type: functional
TEST CONDITIONS: SNB-75, 24 h, read-out: GI

COMPOUND STRUCTURE: COc1ccc(C(=O)c2cc(-c3nc(OC)nc(OC)n3)c3ccccn23)cc1
UNITS OF MEASURE: %
inhibition of growth at 10 µM: -17
//
COMPOUND STRUCTURE: COc1nc(OC)nc(-c2cc(C(=O)c3ccc(Br)cc3)n3c(C)cccc23)n1
UNITS OF MEASURE: %
inhibition of growth at 10 µM: 75
//
COMPOUND STRUCTURE: COc1nc(OC)nc(-c2cc(C(=O)c3ccc(C)cc3)n3ccccc23)n1
UNITS OF MEASURE: %
inhibition of growth at 10 µM: 18
//
COMPOUND STRUCTURE: COc1ccc(C(=O)c2cc(-c3nc(OC)nc(OC)n3)c3cc(C#N)ccn23)cc1
UNITS OF MEASURE: %
inhibition of growth at 10 µM: 46

----------
Reported inhibition of growth at 10 µM by item:
Test system: A549
EXPERIMENT NOTES: Cytotoxicity against human A549 cells assessed as growth inhibition at 10 uM after 24 hrs by SRB assay
Format: functional
TEST CONDITIONS: A549, 24 h, read-out: GI

COMPOUND STRUCTURE: COc1nc(OC)nc(-c2cc(C(=O)c3ccc(Br)cc3)n3ccc4ccccc4c23)n1
TESTED SYSTEM: A549
inhibition of growth at 10 µM: 55%

COMPOUND STRUCTURE: COc1nc(OC)nc(-c2cc(C(=O)c3cc(OC)c(OC)c(OC)c3)n3c(-c4ccccc4)cccc23)n1
TESTED SYSTEM: A549
inhibition of growth at 10 µM: 28%

COMPOUND STRUCTURE: COc1nc(OC)nc(-c2cc(C(=O)c3ccc(C)cc3)n3ccc(C#N)cc23)n1
TESTED SYSTEM: A549
inhibition of growth at 10 µM: 11%

COMPOUND STRUCTURE: COc1nc(OC)nc(-c2cc(C(=O)c3ccc(Br)cc3)n3c2ccc2ccccc23)n1
TESTED SYSTEM: A549
inhibition of growth at 10 µM: 49%

COMPOUND STRUCTURE: COc1nc(OC)nc(-c2cc(C(=O)c3cc(OC)c(OC)c(OC)c3)n3ccc(C)cc23)n1
TESTED SYSTEM: A549
inhibition of growth at 10 µM: 36%

COMPOUND STRUCTURE: COc1nc(OC)nc(-c2cc(C(=O)c3ccc(Cl)cc3)n3ccccc23)n1
TESTED SYSTEM: A549
inhibition of growth at 10 µM: 21%

COMPOUND STRUCTURE: COc1ccc(C(=O)c2cc(-c3nc(OC)nc(OC)n3)c3ccccn23)cc1
TESTED SYSTEM: A549
inhibition of growth at 10 µM: 21%

COMPOUND STRUCTURE: COc1nc(OC)nc(-c2cc(C(=O)c3ccc(Br)cc3)n3ccccc23)n1
TESTED SYSTEM: A549
inhibition of growth at 10 µM: 62%

COMPOUND STRUCTURE: COc1nc(OC)nc(-c2cc(C(=O)c3cc(OC)c(OC)c(OC)c3)n3c(C)cccc23)n1
TESTED SYSTEM: A549
inhibition of growth at 10 µM: 17%

----------
Test system: OVCAR-3
EXPERIMENT NOTES: Cytotoxicity against human OVCAR3 cells assessed as growth inhibition at 10 uM after 24 hrs by SRB assay
Format: functional
TEST CONDITIONS: OVCAR-3, 24 h, read-out: GI
REPORTED PROPERTY: inhibition of growth at 10 µM

COMPOUND STRUCTURE: COc1nc(OC)nc(-c2cc(C(=O)c3ccc(Br)cc3)n3c(C)cccc23)n1
RESULT: 15%
//
COMPOUND STRUCTURE: COc1nc(OC)nc(-c2cc(C(=O)c3cc(OC)c(OC)c(OC)c3)n3ccc(C)cc23)n1
RESULT: 75%
//
COMPOUND STRUCTURE: COc1nc(OC)nc(-c2cc(C(=O)c3ccc(Br)cc3)n3c2ccc2ccccc23)n1
RESULT: 31%
//
COMPOUND STRUCTURE: COc1nc(OC)nc(-c2cc(C(=O)c3ccc(Br)cc3)n3ccc4ccccc4c23)n1
RESULT: 51%
//
COMPOUND STRUCTURE: COc1nc(OC)nc(-c2cc(C(=O)c3cc(OC)c(OC)c(OC)c3)n3c(C)cccc23)n1
RESULT: 19%
//
COMPOUND STRUCTURE: COc1nc(OC)nc(-c2cc(C(=O)c3cc(OC)c(OC)c(OC)c3)n3c(-c4ccccc4)cccc23)n1
RESULT: 28%
//
COMPOUND STRUCTURE: COc1nc(OC)nc(-c2cc(C(=O)c3ccc(Br)cc3)n3ccccc23)n1
RESULT: 44%
